# assaySystem: Voltage-dependent T-type calcium channel subunit alpha-1H (Homo sapiens) (UniProt O95180)
# Sequence (O95180 whole entry, looked up): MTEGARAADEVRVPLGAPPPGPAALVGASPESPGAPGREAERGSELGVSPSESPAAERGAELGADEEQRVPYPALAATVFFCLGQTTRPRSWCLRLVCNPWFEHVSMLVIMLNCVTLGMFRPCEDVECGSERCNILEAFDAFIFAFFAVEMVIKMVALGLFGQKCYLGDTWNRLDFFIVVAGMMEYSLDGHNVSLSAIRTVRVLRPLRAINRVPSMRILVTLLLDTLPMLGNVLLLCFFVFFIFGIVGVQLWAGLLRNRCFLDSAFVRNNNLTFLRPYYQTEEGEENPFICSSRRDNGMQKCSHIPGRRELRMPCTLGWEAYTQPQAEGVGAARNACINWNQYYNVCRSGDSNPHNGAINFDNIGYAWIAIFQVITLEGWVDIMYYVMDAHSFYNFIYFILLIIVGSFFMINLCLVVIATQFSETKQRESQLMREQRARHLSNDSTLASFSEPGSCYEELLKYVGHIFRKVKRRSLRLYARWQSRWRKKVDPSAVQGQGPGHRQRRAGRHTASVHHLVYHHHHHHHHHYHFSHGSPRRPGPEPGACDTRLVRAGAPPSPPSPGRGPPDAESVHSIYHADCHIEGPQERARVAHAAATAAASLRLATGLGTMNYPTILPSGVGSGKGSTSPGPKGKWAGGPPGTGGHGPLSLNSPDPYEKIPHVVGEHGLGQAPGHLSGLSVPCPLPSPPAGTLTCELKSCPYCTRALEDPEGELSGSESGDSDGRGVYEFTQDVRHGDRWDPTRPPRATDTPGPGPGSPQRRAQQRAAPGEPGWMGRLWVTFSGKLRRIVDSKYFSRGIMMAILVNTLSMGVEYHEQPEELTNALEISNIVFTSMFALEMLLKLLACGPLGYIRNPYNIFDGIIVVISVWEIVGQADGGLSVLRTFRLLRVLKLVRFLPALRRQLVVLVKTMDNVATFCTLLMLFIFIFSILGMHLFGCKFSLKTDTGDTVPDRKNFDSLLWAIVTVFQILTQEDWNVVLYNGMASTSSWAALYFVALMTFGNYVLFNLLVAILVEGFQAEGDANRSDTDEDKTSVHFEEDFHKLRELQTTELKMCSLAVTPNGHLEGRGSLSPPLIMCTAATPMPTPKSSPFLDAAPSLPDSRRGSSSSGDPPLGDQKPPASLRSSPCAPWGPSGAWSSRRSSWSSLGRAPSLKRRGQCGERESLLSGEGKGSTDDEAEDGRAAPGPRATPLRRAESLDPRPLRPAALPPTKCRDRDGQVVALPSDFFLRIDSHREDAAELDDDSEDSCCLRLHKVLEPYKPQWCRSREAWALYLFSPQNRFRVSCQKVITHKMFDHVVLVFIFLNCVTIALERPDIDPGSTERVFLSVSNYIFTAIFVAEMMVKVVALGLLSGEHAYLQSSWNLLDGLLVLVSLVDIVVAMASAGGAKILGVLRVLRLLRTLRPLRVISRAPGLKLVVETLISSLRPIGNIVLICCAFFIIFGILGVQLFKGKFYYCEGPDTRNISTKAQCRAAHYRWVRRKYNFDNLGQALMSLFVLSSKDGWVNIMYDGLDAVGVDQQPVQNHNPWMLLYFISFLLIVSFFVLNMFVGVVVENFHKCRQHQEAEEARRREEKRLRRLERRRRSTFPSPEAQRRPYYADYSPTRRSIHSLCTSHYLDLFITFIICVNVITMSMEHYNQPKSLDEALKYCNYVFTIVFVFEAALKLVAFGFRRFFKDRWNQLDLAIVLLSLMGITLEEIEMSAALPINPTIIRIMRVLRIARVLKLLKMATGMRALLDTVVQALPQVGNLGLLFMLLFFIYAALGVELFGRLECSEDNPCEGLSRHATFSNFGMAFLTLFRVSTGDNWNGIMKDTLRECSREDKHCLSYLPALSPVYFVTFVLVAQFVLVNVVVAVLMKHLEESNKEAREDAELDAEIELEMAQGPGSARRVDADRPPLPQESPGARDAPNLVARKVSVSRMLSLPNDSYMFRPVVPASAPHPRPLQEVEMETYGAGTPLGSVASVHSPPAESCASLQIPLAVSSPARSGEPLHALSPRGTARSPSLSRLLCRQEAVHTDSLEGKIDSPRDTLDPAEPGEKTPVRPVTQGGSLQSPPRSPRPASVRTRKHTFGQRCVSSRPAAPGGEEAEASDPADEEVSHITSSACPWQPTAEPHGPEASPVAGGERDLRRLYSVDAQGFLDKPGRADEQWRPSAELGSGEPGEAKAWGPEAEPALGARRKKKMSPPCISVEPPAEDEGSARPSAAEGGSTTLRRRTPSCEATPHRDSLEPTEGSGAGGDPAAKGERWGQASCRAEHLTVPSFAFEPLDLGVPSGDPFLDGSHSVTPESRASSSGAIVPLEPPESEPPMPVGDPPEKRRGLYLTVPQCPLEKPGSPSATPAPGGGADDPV
# testProtocol: Cav3.2 calcium influx blockers – cell-based, Fluo-4 calcium fluorescence, FDSS, MLSMR library, primary screen (AID 449739)
# conditionLabel: Cav3.2-expressing cells, at 10 µM, hits give low values
The campaign covered roughly 100,000 compounds. About 4,200 (4.2%) were called active. Many of the other results were omitted from the sample, so actives are more common in it than they were.
Criterion: B-score strictly less than -0.3. Met: Y. Not met: N.

Solved entries:
COC(=O)c1ccccc1OCC(=O)N1CCN(c2ccc(Cl)cc2)CC1 : Y
CN(C)CCNC(=O)Nc1cccc(Cl)c1Cl : N
COCCNC(=O)c1ccccc1-c1nc(-c2ccccc2Cl)no1 : N
Cc1nn(-c2ccccn2)c2c1C(c1ccncc1)C1=C(CC(C)(C)CC1=O)N2 (configuration not stated) : N
C[C@H](NC(=O)c1nc[nH]c1C(=O)N[C@@H](C)C(=O)OC(C)(C)C)C(=O)OC(C)(C)C : N
Cc1onc(-c2ccccc2Cl)c1C(=O)NCCn1ccc2ccccc21 : Y
O=C(Cc1ncc(C(F)(F)F)cc1Cl)Nc1cccc(Br)c1 : Y
Cc1nc(C)c(C(=O)N(c2ccc(C)c(C)c2)C(C(=O)NCc2ccco2)c2ccccc2)s1 (configuration not stated) : Y

Qu. I wonder whether Cc1onc(-c2ccccc2Cl)c1C(=O)OCC(=O)c1ccccc1 has B-score below -0.3. Can you tell?
Ans. Y

Qu. I wonder whether COc1ccc(CCNC(=O)C2CCCN(Cc3nc(-c4cccc(Cl)c4)oc3C)C2)cc1OC (configuration not stated) has B-score below -0.3. Can you tell?
Ans. Y

Qu. I wonder whether Cc1ccc2cc(CCNC(=O)c3ccc4c(c3)OCO4)c(=O)[nH]c2c1 has B-score below -0.3. Can you tell?
Ans. N
